TARGET OR TEST SYSTEM: CBL-B (residues 36-427) (Homo sapiens)
Construct: Purified CBL-B (residues 36-427) and C-CBL (residues 46-435) proteins from baculovirus-infected insect cells; made in house; host or cells: baculovirus-infected insect cells
RUN DESCRIPTION: Ligand Displacement Assay (LDA), HTRF competitive binding against BODIPY-labeled fluorescent tracer, CBL-B
MEASUREMENT CONDITIONS: geometric mean of the number of tests, read-out: CBL-B Ki (nM) GMean
METRIC NAME: Ki (nM)
Number only, in nM; omit the unit.

Ask: Identify measured Ki corresponding to Cn1cnnc1[C@@H](c1cccc(-c2n[nH]c3c(CN[C@H]4C[C@@H](O)C4)nc(C(F)(F)F)cc23)c1)C1CCC1 [Example C120]
Result: 13.6

Ask: Identify measured Ki corresponding to C[C@@H](NC1CCC1)c1nc(C(F)(F)F)cc2c(-c3cccc(C4(Cc5nncn5C)COC4)c3)n[nH]c12 [Example C16]
Result: 10

Ask: Identify measured Ki corresponding to CCNCc1nc(C(F)(F)F)cc2c(-c3cccc([C@H](c4nncn4C)C4CCC4)c3)n[nH]c12 [Example D81]
Result: 25.7

Ask: Identify measured Ki corresponding to Cn1cnnc1[C@@H](c1cccc(-c2n[nH]c3c(CN4CCNCC4)nc(C(F)(F)F)cc23)c1)C1CCC1 [Example D84]
Result: 21.9

Ask: Identify measured Ki corresponding to CCC(CC)(CO)N[C@H](C)c1nc(C(F)(F)F)cc2c(-c3cccc([C@H](c4nncn4C)C4CCC4)c3)n[nH]c12 (single isomer, unassigned) [Example D75]
Result: 11

Ask: Identify measured Ki corresponding to Cn1cnnc1CC1(c2cccc(-c3n[nH]c4c(CN5C[C@H](F)[C@@H](F)C5)nc(C(F)(F)F)cc34)c2)COC1 [Example C68]
Result: 24.8

Ask: Identify measured Ki corresponding to CC(C)NCc1nc(C(F)(F)F)cc2c(-c3cccc(C4(Cc5nncn5C)COC4)c3)n[nH]c12 [Example C53]
Result: 66.6

Origin of values: patent US20260125375A1
